- testedSystem: SMARCA2 (Homo sapiens, UniProt P51531)
- Construct: endogenous in cells
- Sequence (P51531 whole entry): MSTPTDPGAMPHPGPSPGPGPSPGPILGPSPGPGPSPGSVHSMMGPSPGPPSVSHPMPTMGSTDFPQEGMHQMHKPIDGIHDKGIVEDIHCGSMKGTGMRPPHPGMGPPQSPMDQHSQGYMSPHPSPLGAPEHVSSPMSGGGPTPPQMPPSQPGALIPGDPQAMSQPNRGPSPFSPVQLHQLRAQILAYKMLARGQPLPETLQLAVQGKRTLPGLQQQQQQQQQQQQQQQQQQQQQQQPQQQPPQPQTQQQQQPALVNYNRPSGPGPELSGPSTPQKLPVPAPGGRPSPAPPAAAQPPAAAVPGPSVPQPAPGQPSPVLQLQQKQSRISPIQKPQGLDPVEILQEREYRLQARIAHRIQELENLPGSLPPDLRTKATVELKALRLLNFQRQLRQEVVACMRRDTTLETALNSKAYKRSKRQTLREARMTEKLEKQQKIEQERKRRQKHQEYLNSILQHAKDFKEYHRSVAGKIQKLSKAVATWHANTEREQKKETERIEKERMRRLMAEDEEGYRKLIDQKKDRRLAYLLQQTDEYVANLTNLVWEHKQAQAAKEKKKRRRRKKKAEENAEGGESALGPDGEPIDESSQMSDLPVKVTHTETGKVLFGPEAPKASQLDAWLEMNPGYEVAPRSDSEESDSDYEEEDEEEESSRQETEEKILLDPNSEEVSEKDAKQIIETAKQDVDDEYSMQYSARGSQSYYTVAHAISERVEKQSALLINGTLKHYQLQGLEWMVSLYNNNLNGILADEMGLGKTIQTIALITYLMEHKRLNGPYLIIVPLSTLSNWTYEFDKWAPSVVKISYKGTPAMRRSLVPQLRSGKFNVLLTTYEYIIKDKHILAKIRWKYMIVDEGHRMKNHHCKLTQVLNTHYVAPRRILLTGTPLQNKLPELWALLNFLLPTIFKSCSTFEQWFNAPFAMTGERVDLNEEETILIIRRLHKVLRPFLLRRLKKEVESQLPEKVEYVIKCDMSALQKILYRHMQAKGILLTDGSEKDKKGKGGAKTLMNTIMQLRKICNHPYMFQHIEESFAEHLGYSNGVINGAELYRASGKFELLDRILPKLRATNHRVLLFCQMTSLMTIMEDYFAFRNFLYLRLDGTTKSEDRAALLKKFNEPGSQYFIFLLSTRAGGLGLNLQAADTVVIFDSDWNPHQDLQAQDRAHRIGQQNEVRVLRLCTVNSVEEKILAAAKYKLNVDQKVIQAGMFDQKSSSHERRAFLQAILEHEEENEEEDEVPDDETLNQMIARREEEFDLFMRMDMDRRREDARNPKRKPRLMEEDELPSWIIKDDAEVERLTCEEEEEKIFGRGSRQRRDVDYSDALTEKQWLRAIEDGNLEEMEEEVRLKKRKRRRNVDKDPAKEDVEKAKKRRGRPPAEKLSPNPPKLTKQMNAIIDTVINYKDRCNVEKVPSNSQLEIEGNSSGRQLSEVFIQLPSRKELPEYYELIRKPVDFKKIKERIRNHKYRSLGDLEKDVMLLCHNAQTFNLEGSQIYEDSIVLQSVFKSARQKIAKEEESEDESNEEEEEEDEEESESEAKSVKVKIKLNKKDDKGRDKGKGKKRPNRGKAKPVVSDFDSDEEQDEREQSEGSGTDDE
- testMethodNotes: SMARCA2 HiBiT degradation assay (cellular)
- Format: cell-based
- assayContext: A549, Emax = amount of residual protein remaining in the cell following compound treatment

{"sampleSmiles": "Cc1ncsc1-c1ccc(CNC(=O)[C@@H]2C[C@@H](O)CN2C(=O)[C@@H](NC(=O)CCCCCCCC(=O)N2CCN(CCOc3cccc(N4C5CCC4CN(c4cc(-c6ccccc6O)nnc4N)C5)c3)CC2)C(C)(C)C)cc1", "Emax [%]": 38}
{"sampleSmiles": "Cc1ncsc1-c1ccc(CNC(=O)[C@@H]2C[C@@H](O)CN2C(=O)[C@@H](NC(=O)CCCCCCCCC(=O)N2CC=C(c3cc(-c4ccccc4O)nnc3N)CC2)C(C)(C)C)cc1", "Emax [%]": 50}
{"sampleSmiles": "Cc1ncsc1-c1ccc(CNC(=O)[C@@H]2C[C@@H](O)CN2C(=O)[C@@H](NC(=O)CCCCCC(=O)N2C3CCC2CN(c2cc(-c4ccccc4O)nnc2N)C3)C(C)(C)C)cc1", "Emax [%]": 31}
{"sampleSmiles": "Cc1ncsc1-c1ccc(CNC(=O)[C@@H]2C[C@@H](O)CN2C(=O)[C@@H](NC(=O)CCCCCCCCC(=O)N2C3CCCC2CN(c2cc(-c4ccccc4O)nnc2N)C3)C(C)(C)C)cc1", "Emax [%]": 18}
{"sampleSmiles": "Cc1ncsc1-c1ccc(CNC(=O)[C@@H]2C[C@@H](O)CN2C(=O)[C@@H](NC(=O)CCCCCCCCC(=O)N[C@H]2C[C@H](Oc3cc(-c4ccccc4O)nnc3N)C2)C(C)(C)C)cc1", "Emax [%]": 50}

----------
- testedSystem: SMARCA2 (Homo sapiens, UniProt P51531)
- Construct: endogenous in cells
- testMethodNotes: SMARCA2 HiBiT degradation assay (cellular)
- Type: cell-based
- assayContext: SMARCA2 HiBiT cells, luminescence readout, 11-point titration from 10 μM, 6 hours or 16 hours; read-out: HiBit A549 SMARCA2 IP

{"compound": "Cc1ncsc1-c1ccc(CNC(=O)[C@@H]2C[C@@H](O)CN2C(=O)[C@H](NC(=O)CCCCCCC(=O)N2CCN(CCOc3cccc(N4C5CCC4CN(c4cc(-c6ccccc6O)nnc4N)C5)c3)CC2)C(C)(C)C)cc1", "readoutUnit": "nM", "DC50": 610}
{"compound": "Cc1ncsc1-c1ccc([C@H](C)NC(=O)[C@@H]2C[C@@H](O)CN2C(=O)[C@@H](NC(=O)CCCCCC(=O)N2CCN(c3cccc(OC4CN(c5cc(-c6ccccc6O)nnc5N)C4)c3)CC2)C(C)(C)C)cc1", "readoutUnit": "nM", "DC50": 693}
{"compound": "Cc1ncsc1-c1ccc([C@H](C)NC(=O)[C@@H]2C[C@@H](O)CN2C(=O)[C@@H](NC(=O)CCC(=O)N2CCN(c3ccc(CN4CCCC(Oc5cc(-c6ccccc6O)nnc5N)C4)cc3)CC2)C(C)(C)C)cc1 (mixture of isomers)", "readoutUnit": "nM", "DC50": 426}
{"compound": "Cc1ncsc1-c1ccc(CNC(=O)[C@@H]2C[C@@H](O)CN2C(=O)[C@@H](NC(=O)CCCCCCCCC(=O)N2C3CCC2CN(c2cc(-c4ccccc4O)nnc2N)C3)C(C)(C)C)cc1", "readoutUnit": "nM", "DC50": 2510}

----------
- testedSystem: SMARCA2 (Homo sapiens, UniProt P51531)
- Construct: endogenous in cells
- testMethodNotes: SMARCA2 HiBiT degradation assay (cellular)
- Format: cell-based
- assayContext: SMARCA2 HiBiT cells, luminescence readout, 11-point titration from 10 μM, 6 hours or 16 hours; read-out: HiBit A549 SMARCA2 IP

{"compound": "Cc1ncsc1-c1ccc([C@H](C)NC(=O)[C@@H]2C[C@@H](O)CN2C(=O)[C@@H](NC(=O)CCCCCCCCC(=O)N2CCN(c3ccc(CN4CCCC(Oc5cc(-c6ccccc6O)nnc5N)C4)cc3)CC2)C(C)(C)C)cc1 (mixture of isomers)", "DC50, nM": 204}
{"compound": "Cc1ncsc1-c1ccc(CNC(=O)[C@@H]2C[C@@H](O)CN2C(=O)[C@@H](NC(=O)CCCCCCCCC(=O)NCC(COc2cc(-c3ccccc3O)nnc2N)c2ccccc2)C(C)(C)C)cc1 (mixture of isomers) [Example 51]", "DC50, nM": 1650}

----------
- testedSystem: SMARCA2 (Homo sapiens)
- Construct: endogenous in cells
- testMethodNotes: SMARCA2 HiBiT degradation assay (cellular)
- Format: cell-based
- assayContext: SMARCA2 HiBiT cells, luminescence readout, 11-point titration from 10 μM, 6 hours or 16 hours; read-out: HiBit A549 SMARCA2 IP
Some compounds, each annotated with its measured log10 of DC50.
readoutLabel: log10 of DC50 (log10 of the value in nM)

{"compound": "Cc1ncsc1-c1ccc(CNC(=O)[C@@H]2C[C@@H](O)CN2C(=O)[C@H](NC(=O)CCCCCCCCCOc2cccc(N3C4CCC3CN(c3cc(-c5ccccc5O)nnc3N)C4)c2)C(C)(C)C)cc1", "log10 of DC50": 2.50}
{"compound": "Cc1ncsc1-c1ccc([C@H](C)NC(=O)[C@@H]2C[C@@H](O)CN2C(=O)[C@@H](NC(=O)CCCCCCCCCCC(=O)N2CCN(c3ccc(N4CCCC(Oc5cc(-c6ccccc6O)nnc5N)C4)cc3)CC2)C(C)(C)C)cc1 (mixture of isomers)", "log10 of DC50": 2.13}
{"compound": "Cc1ncsc1-c1ccc(CNC(=O)[C@@H]2C[C@@H](O)CN2C(=O)[C@@H](NC(=O)CCCCCCCCC(=O)N(C)CCNC(=O)C2CN(c3cc(-c4ccccc4O)nnc3N)CCN2c2ccccc2)C(C)(C)C)cc1 (mixture of isomers)", "log10 of DC50": 3.22}
{"compound": "Cc1ncsc1-c1ccc(CNC(=O)[C@@H]2C[C@@H](O)CN2C(=O)[C@@H](NC(=O)CCCCCCCCC(=O)NCC(COc2cc(-c3ccccc3O)nnc2N)c2ccccc2)C(C)(C)C)cc1 (some centres unmarked) [Example 50]", "log10 of DC50": 3.33}
{"compound": "Cc1ncsc1-c1ccc([C@@H](C)NC(=O)[C@H]2C[C@H](O)CN2C(=O)[C@H](NC(=O)CCOCCC(=O)N2CCN(c3ccc(N4CCCC(Oc5cc(-c6ccccc6O)nnc5N)C4)cc3)CC2)C(C)(C)C)cc1 (stereo in doubt)", "log10 of DC50": 3.28}
{"compound": "Cc1ncsc1-c1ccc([C@H](C)NC(=O)[C@@H]2C[C@@H](O)CN2C(=O)[C@@H](NC(=O)CCCCCC(=O)N2CCN(CCOc3cccc(CCOc4cc(-c5ccccc5O)nnc4N)c3)CC2)C(C)(C)C)cc1", "log10 of DC50": 2.87}
{"compound": "Cc1ncsc1-c1ccc(CNC(=O)[C@@H]2C[C@@H](O)CN2C(=O)[C@@H](NC(=O)CCCCCCCCCCC(=O)N2CCN(CCOc3cccc(C#Cc4cc(-c5ccccc5O)nnc4N)c3)CC2)C(C)(C)C)cc1", "log10 of DC50": 2.92}
{"compound": "Cc1ncsc1-c1ccc(CNC(=O)[C@@H]2C[C@@H](O)CN2C(=O)[C@@H](NC(=O)CCCCCCCCCC(=O)N2CCN(CCOc3cccc(N4CC5CCC(C4)N5c4cc(-c5cc(F)ccc5O)nnc4N)c3)CC2)C(C)(C)C)cc1", "log10 of DC50": 2.88}
{"compound": "Cc1ncsc1-c1ccc([C@H](C)NC(=O)[C@@H]2C[C@@H](O)CN2C(=O)[C@@H](NC(=O)CCCCCCCCCCC(=O)N(C)CC(COc2cc(-c3ccccc3O)nnc2N)c2ccccc2)C(C)(C)C)cc1 (mixture of isomers)", "log10 of DC50": 2.66}
{"compound": "Cc1ncsc1-c1ccc(CNC(=O)[C@@H]2C[C@@H](O)CN2C(=O)[C@@H](NC(=O)CCCCCCCCC(=O)N2CCC(CNC(=O)C3(c4ccccc4)CCN(c4cc(-c5ccccc5O)nnc4N)CC3)CC2)C(C)(C)C)cc1", "log10 of DC50": 2.92}
{"compound": "Cc1ncsc1-c1ccc(CNC(=O)[C@@H]2C[C@@H](O)CN2C(=O)[C@@H](NC(=O)CCCCCCCCC(=O)N2CCN(Cc3cccc(-c4cc(-c5ccccc5O)nnc4N)c3F)CC2)C(C)(C)C)cc1", "log10 of DC50": 2.76}
{"compound": "Cc1ncsc1-c1ccc([C@H](C)NC(=O)[C@@H]2C[C@@H](O)CN2C(=O)[C@@H](NC(=O)CCCCCC(=O)N(C)CCCN(C)c2ccc(CCOc3cc(-c4ccccc4O)nnc3N)cc2)C(C)(C)C)cc1 (racemic)", "log10 of DC50": 3.16}
{"compound": "Cc1ncsc1-c1ccc(CNC(=O)[C@@H]2C[C@@H](O)CN2C(=O)[C@@H](NC(=O)CCCCCCCC(=O)N2CCN(CCOc3cccc(N4C5CCC4CN(c4cc(-c6ccccc6O)nnc4N)C5)c3)CC2)C(C)(C)C)cc1", "log10 of DC50": 2.68}
{"compound": "Cc1ncsc1-c1ccc(CNC(=O)[C@@H]2C[C@@H](O)CN2C(=O)[C@@H](NC(=O)CCCCCCCCC(=O)N2C3CCCC2CN(c2cc(-c4ccccc4O)nnc2N)C3)C(C)(C)C)cc1", "log10 of DC50": 2.88}
{"compound": "Cc1ncsc1-c1ccc(CNC(=O)[C@@H]2C[C@H](O)CN2C(=O)[C@@H](NC(=O)CCCCCCCC(=O)N2CCC(Cc3cccc(N4C5CCC4CN(c4cc(-c6ccccc6O)nnc4N)C5)c3)CC2)C(C)(C)C)cc1", "log10 of DC50": 2.98}
{"compound": "Cc1ncsc1-c1ccc([C@H](C)NC(=O)[C@@H]2C[C@@H](O)CN2C(=O)[C@@H](NC(=O)CCCCCCCCC(=O)N(C)CC(COc2cc(-c3ccccc3O)nnc2N)c2ccccc2)C(C)(C)C)cc1 (mixture of isomers)", "log10 of DC50": 2.54}
{"compound": "Cc1ncsc1-c1ccc([C@H](C)NC(=O)[C@@H]2C[C@@H](O)CN2C(=O)[C@@H](NC(=O)CCCCCCCCC(=O)N2CCN(c3cccc(N4CCCC(Oc5cc(-c6ccccc6O)nnc5N)C4)c3)CC2)C(C)(C)C)cc1 (mixture of isomers)", "log10 of DC50": 2.78}
